Where do the numbers come from? From ChEMBL document CHEMBL1201862.

- ASSAY SYSTEM: Heat shock factor protein 1 (Mus musculus, UniProt P38532)
- Sequence (P38532 whole entry): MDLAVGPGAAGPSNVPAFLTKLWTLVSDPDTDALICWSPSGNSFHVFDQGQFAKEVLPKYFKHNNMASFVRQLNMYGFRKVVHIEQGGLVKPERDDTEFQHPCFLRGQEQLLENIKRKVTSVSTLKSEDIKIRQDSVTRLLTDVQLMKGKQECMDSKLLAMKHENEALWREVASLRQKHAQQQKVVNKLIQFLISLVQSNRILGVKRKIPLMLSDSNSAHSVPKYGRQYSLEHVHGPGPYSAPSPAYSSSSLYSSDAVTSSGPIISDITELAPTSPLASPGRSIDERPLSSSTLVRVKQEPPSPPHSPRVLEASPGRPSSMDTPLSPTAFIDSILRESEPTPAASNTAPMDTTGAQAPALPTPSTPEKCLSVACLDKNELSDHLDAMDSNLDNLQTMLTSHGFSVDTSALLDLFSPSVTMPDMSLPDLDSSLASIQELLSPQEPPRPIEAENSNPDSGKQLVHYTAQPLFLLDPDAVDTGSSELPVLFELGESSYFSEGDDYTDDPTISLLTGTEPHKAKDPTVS
- ASSAY OVERVIEW: HSF1 potentiators in luciferase reporter cells, confirmation, cell-based, NIH3T3, luminescence, dose retest (AID 435004);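 further: stress induced by proteasome inhibitor MG132 added 30 min after compound; luciferase reporter driven by HSF1 response element in NIH3T3 cells; actives raise luminescence as potentiators of the MG132 stress response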
- Assay type: functional
Active and inactive are the calls of the source. No stated cut-off is given here; in the data, actives have a measured EC50 and inactives only a lower limit.
Classes used: yes (active), no (inactive)

>>> discrete_label("CCOc1ccc(S(=O)(=O)NN=C(S)Nc2ccc(Br)cc2)cc1")
"no"
>>> discrete_label("CS(=O)(=O)c1nc(-c2ccccc2)cc(-c2ccccc2)c1C#N")
"yes"
>>> discrete_label("CC1CCN(C(c2ccc(N(C)C)cc2)c2nnnn2Cc2ccccc2)CC1 (centres undefined)")
"no"
>>> discrete_label("Cc1cccc(-[n+]2c(C)cc(C)c3c(=O)[nH]c(=O)[nH]c32)c1")
"no"
